Values compiled from the supplement of paper PMC6555819.

I'd be grateful if you could share measured PBM binding z-score for these entries.
# Test system: PXR:RXRa (NR concentration 270 nM, RXRa partner concentration 90 nM)
# assay.notes: PBM binding z-score (relative to random genomic background probes); higher = stronger binding; sequences stand for … in GC…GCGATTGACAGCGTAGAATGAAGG

Study these solved cases before continuing.
- primary.sequence: "CGAACTAGGTTAAAGGACAGTGAAAGGCGACGTA"
  PBM binding z-score: -0.281
- primary.sequence: "CCTACTGGGCCACTCAGAGGTCATTGATCATATG"
  PBM binding z-score: 5.1
- primary.sequence: "CTACGTAGGTTAAGGGGGTCATTCAGTTTGAAAG"
  PBM binding z-score: 5.94
- primary.sequence: "CGTCAAAGTTCAAGGTTACGTAACAGAAAGCAGC"
  PBM binding z-score: 4.66
- primary.sequence: "ATCCAAAGGTCGAGGTGAGTATAGAGAAAGGGAA"
  PBM binding z-score: 2.84
- primary.sequence: "CGAACTAGGTCAGAACAGTACAGTGAAGGATGAT"
  PBM binding z-score: 0.921
- primary.sequence: "ATTTGTAGGTTATCGGGTCATTCAGTTTGCGCAT"
  PBM binding z-score: 4.01
- primary.sequence: "CGTCCAAGGGCAGCAGGTCAGTGAAAGCGACGTG"
  PBM binding z-score: 0.274
- primary.sequence: "TCGAGTAGATTACGGGGGCATTCAGGGATGAAGA"
  PBM binding z-score: 2.52
- primary.sequence: "TTACAAAGGTGAGCTGAGGTCGTTGATCCAACTC"
  PBM binding z-score: 6.04

// each listed sequence needs a value for PBM binding z-score
1. CTAACTAGGTCAAAGGACAGTGAAAGGCGACGTA
2. ATATGTAGGTTAGAGTCATTCAGAAAGTAGGGAA
3. ATATGTAGGTTAGGGTAATTCAGAAAGTAGGGAA
4. CCTCCAAGGTCATAGGAGGTCAGTGAAGACAGAT
5. CTATGTAGGTTGAGGGGGTCATTCAGTTTGAAAG

[1.19, 0.349, 0.958, 6.72, 5.67]

// each listed sequence needs a value for PBM binding z-score
1. AATTCAGGGTCACTAGGCCAGAGTAGGTACGAAT
2. TCGAGTATGTTACGGGGGCATTCAGGGATGAAGA
3. GATTACGGGTCAAAGGTTATAGCATGAATAGAAT
4. TCTAGTTGGTCAAAGGTCTCACACTCGAAATGCG

[4.19, 2.87, 6.03, 1.34]

// each listed sequence needs a value for PBM binding z-score
1. CCTGCTAGGTCAAGGGTCAGCTAAAGCAGCTCGC
2. CGAACTAGGTCAAAGGAAAGTGAAAGGCGACGTA
3. CATACAGGGTCATCTAGGCCAGAGTAGGGACGGC
4. ATCGAAAGGTCGACGAGTTGAGTATACACCGTTT
5. GCTGCTAGGTCAACTGAGGGTCAGCTAAAGCTCG
6. CCTACTGGGCCATTGAGAGGTCATTGATCATATG

4.65
0.854
3.65
3.23
4.5
4.37

// each listed sequence needs a value for PBM binding z-score
1. AGAATGAGGTTAACAAAGATCAGGGAAACGCTTG
2. GCTGCAAGGTCAACTGATGGTCAGCTAAAGCTCG
3. ACTAATTGGTCAGCTGAGGTCACACACAATTCGG
4. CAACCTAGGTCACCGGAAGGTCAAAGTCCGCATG
5. TAGCCTAGCTCATTCAGGGGCCAGTATAGAAAGC
6. CCGAGTAGGTAACGAGGGGGCATTCAGTGCGAAT
7. ATCGAAAGGTCGTGAGGTGTGTATACAGAAAGGC
8. CTGAGTAGGTTACGAGGGGGCATTCAGTGCGAAT

[1.72, 4.58, 5.67, 6.29, -0.527, 3.42, 3.12, 4.54]
